experiment: In vitro solubility evaluation in 50 mM phosphate buffer solution (PPB, pH 6.5), room temperature (Example 2-1); assay type: physicochemical; settings: 50 mM phosphate buffer pH 6.5, room temperature, shaking 24 hours, no surfactant; read-out: solubilities, PPb
Numbered stars: 1 amine (or outer) side, 2 acyl side, 3 side chain; on linkers, the order of the positions; unused ones are H or OH. Bridge positions count the residues as written; N and C are the ends. Square brackets hold non-standard residues; d marks the D form. Peptide text beside a SMILES is read from it. * marks the point of attachment. hPhe(3-Cl-4-CF3) = N[C@@H](CCc1ccc(C(F)(F)F)c(Cl)c1)C(=O)O; X1 = CN(C(CC(=O)[*:2])C(=O)C1CCCCC1)[*:1]; NMeCha = CN[C@@H](CC1CCCCC1)C(=O)O; NMeChg = CN[C@H](C(=O)O)C1CCCCC1; NMeF = CN[C@@H](Cc1ccccc1)C(=O)O; NMeI = CC[C@H](C)[C@H](NC)C(=O)O; NMeL = CN[C@@H](CC(C)C)C(=O)O; NMeV = CN[C@H](C(=O)O)C(C)C; NMeA = CN[C@@H](C)C(=O)O; Piperidide = C1CCN(*)CC1; Ac5c = NC1(C(=O)O)CCCC1; Sar = CNCC(=O)O; tBu = CC(C)(C)*
METRIC: solubility at 24 h (µg/mL)
Note: unit µg/mL is implicit; provide only the numeric part.

CC[C@H](C)[C@H]1C(=O)N[C@@H](COC(C)(C)C)C(=O)N(C)[C@@H](Cc2ccccc2)C(=O)N(C)[C@@H](C(C)C)C(=O)N[C@H](C(=O)N2CCCCC2)CC(=O)N(C)[C@@H](C)C(=O)N(C)[C@@H](Cc2ccccc2)C(=O)N[C@@H](CC(C)C)C(=O)N(C)[C@@H](CC(C)C)C(=O)N[C@@H]([C@@H](C)O)C(=O)N(C)CC(=O)N1C [Compound 2] ([NMeA][NMeF]L[NMeL]T[Sar][NMeI]S(tBu)[NMeF][NMeV]D-Piperidide; lactam N-11); 11

Consider the record given below.
Given the molecule CC[C@H](C)[C@@H]1NC(=O)[C@H](CC(C)C)N(C)C(=O)CC(C(=O)C2CCCCC2)N(C)C(=O)[C@H](C2CCCCC2)N(C)C(=O)C2(CCCC2)NC(=O)[C@@H]2CCCN2C(=O)[C@H](CCc2ccc(C(F)(F)F)c(Cl)c2)NC(=O)CN(C)C(=O)[C@H](CC2CCCCC2)N(C)C(=O)CN(C)C(=O)CN(C)C1=O (some centres unmarked) [Compound 1] (cyclo([Ac5c][NMeChg][X1][NMeL]I[Sar][Sar][NMeCha][Sar][hPhe(3-Cl-4-CF3)]P)) , what is its reported solubility at 24 h?
1
